Numbers sourced from a melting point compilation (Tetko et al.; mined from patent text by program, amines drawn as free bases though some values may be those of a salt).

Parameter melting point: see the listing below.

Solved entries (count: 3):
>>> test_result("CCOC(=O)C1=C(C)NC(=S)N(C(=O)OCC)C1c1ccccc1[N+](=O)[O-] (stereo unspecified)")
"130 to 132 °C"
>>> test_result("Cc1cccc(S(=O)(=O)N2CCCC2c2ccc(F)cc2)c1 (racemic)")
"102 °C"
>>> test_result("CCCc1c(OCCCCCOc2ccccc2CCCCC(=O)O)ccc2c1OCCC2=O")
"75 to 76 °C"

Query string: Give melting point for Cc1ccc2noc(-c3ccccc3)c2c1
Result string: 64 to 66 °C

Query string: Write down melting point measured for item COC(=O)c1ccc(-c2ccc(C#N)cc2)nc1
Result string: 142 to 144 °C

Query string: Give melting point for the following compound: Fc1ccc(-c2nc(SCSc3nc(-c4ccc(F)cc4)c(-c4ccc(F)cc4)[nH]3)[nH]c2-c2ccc(F)cc2)cc1
Result string: 265 °C

Query string: Return melting point for the following compound: CCC12CCC(=O)C=C1c1c(cc(OCC(=O)OCC(O)CO)c(Cl)c1Cl)C2 (stereo unspecified)
Result string: 135 to 138 °C

Query string: Name the recorded melting point of the compound listed here: CC(=O)Oc1cc2c(c(OC(C)=O)c1)C1CCC3(C)C(O)CCC3C1CC2 (stereo unspecified)
Result string: 210 to 211 °C
